Protocol description: Kinetic solubility of the compound in PBS buffer
Type: physicochemical
Parameter measured: Kinetic_solubility (Ug/ml)

> print(dat)
                            compound.smiles  parameter.measured  units.symbol  relation.sign  endpoint.result
1  O=C(O)Cc1ccc(OCc2ccccc2Cl)c(-c2cc(-c3ccc(F)cc3)n(Cc3ccccc3)n2)c1  Kinetic_solubility         Ug/ml              <            0.015
2  COc1cccc(-c2cc(-c3cc(C(=O)O)ccc3OCC(C)C)nn2CCc2ccccc2)c1OC  Kinetic_solubility         Ug/ml              =            0.056
3  COc1ccc(CC(=O)O)cc1-c1cc(-c2ccc(F)cc2)n(Cc2ccccc2)n1  Kinetic_solubility         Ug/ml              >              0.2
4  COc1ccc(CC(=O)O)cc1-c1cc(-c2cccc(OC)c2OC)n(Cc2ccccc2)n1  Kinetic_solubility         Ug/ml              >              0.2
5  CCCOc1ccc(CC(=O)O)cc1-c1cc(-c2ccccc2OCC)n(CCc2ccccc2)n1  Kinetic_solubility         Ug/ml              =            0.066

###

Study system: Tumour suppressor p53/oncoprotein Mdm2 (Homo sapiens, UniProt Q00987)
Sequence (P04637 whole entry): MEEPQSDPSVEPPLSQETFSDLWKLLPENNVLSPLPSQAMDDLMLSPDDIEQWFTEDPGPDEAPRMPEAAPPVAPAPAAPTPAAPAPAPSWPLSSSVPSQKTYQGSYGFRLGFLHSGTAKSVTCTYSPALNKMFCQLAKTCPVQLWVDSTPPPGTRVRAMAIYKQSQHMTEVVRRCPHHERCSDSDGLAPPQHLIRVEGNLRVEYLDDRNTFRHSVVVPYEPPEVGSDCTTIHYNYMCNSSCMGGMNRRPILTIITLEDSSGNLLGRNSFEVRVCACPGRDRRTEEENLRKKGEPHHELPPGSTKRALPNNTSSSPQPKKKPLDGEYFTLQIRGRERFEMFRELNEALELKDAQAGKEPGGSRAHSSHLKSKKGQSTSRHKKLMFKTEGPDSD
Sequence (Q00987 whole entry): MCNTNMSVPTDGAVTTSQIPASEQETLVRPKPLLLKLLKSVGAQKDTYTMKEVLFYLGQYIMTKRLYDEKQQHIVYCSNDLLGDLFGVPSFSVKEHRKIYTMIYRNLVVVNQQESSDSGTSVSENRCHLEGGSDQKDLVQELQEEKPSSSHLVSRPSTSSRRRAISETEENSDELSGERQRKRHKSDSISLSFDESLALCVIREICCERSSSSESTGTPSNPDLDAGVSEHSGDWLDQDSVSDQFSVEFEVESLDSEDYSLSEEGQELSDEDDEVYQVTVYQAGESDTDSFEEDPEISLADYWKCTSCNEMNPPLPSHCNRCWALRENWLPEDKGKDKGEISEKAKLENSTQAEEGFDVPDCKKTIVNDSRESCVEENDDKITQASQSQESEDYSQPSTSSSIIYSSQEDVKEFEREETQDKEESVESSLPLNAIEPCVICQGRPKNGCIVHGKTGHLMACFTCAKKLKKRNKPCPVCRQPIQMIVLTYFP
Protocol description: Inhibition of 6His-tagged MDM2 (1 to 118) interaction to FITC-tagged p53 (17 to 26) (unknown origin) after 30 mins by fluorescence polarization assay
pIC50: −log10 of the molar value.
Parameter measured: pIC50

> print(dat)
                            compound.smiles  endpoint.result
1  CCOc1ccc(C(=O)O)cc1-c1cc(-c2cccc(OC)c2OC)n(CCc2ccccc2)n1             4.85
2  CCOc1ccccc1-c1cc(-c2cc(C(=O)O)ccc2OCC(C)C)nn1CCc1ccccc1             4.85
3  CCCOc1ccc(CC(=O)O)cc1-c1cc(-c2cccc(OC)c2OC)n(Cc2ccccc2)n1             3.48
4  COc1ccc(C(=O)O)cc1-c1cc(-c2cccc(OC)c2OC)n(Cc2ccccc2)n1             2.99
5  CCOc1ccccc1-c1cc(-c2cc(C(=O)O)ccc2OC)nn1CCc1ccccc1             3.63
6  CCCOc1ccc(CC(=O)O)cc1-c1cc(-c2ccccc2OCC)n(CCc2ccccc2)n1             4.14
7  CCCOc1ccc(CC(=O)O)cc1-c1cc(-c2cccc(OC)c2OC)n(CCc2ccccc2)n1             4.22
8  CCOc1ccc(CC(=O)O)cc1-c1cc(-c2cccc(OC)c2OC)n(Cc2ccccc2)n1             3.46
9  CCCCOc1ccc(C(=O)O)cc1-c1cc(-c2cccc(OC)c2OC)n(CCc2ccccc2)n1             4.85

###

Protocol description: Kinetic solubility of the compound in PBS buffer
Format: physicochemical
Parameter measured: Kinetic_solubility

> print(dat)
                             compound.smiles  parameter.measured  endpoint.result
 1  COc1ccc(CCC(=O)O)cc1-c1cc(-c2ccc(Cl)cc2)n(CCc2ccccc2)n1  Kinetic_solubility      0.046 Ug/ml
 2  CCOc1ccc(CCC(=O)O)cc1-c1cc(-c2ccc(F)cc2)n(CCc2ccccc2)n1  Kinetic_solubility      > 0.2 Ug/ml
 3  CCOc1ccccc1-c1cc(-c2cc(CCC(=O)O)ccc2OC)nn1CCc1ccccc1  Kinetic_solubility      > 0.2 Ug/ml
 4  CCCOc1ccc(CC(=O)O)cc1-c1cc(-c2cccc(OC)c2OC)n(Cc2ccccc2)n1  Kinetic_solubility      > 0.2 Ug/ml
 5  COc1ccc(C(=O)O)cc1-c1cc(-c2cccc(OC)c2OC)n(CCc2ccccc2)n1  Kinetic_solubility      > 0.2 Ug/ml
 6  CCCCOc1ccc(C(=O)O)cc1-c1cc(-c2cccc(OC)c2OC)n(CCc2ccccc2)n1  Kinetic_solubility      0.066 Ug/ml
 7  CCCCOc1ccc(C(=O)O)cc1-c1cc(-c2ccccc2OCC)n(CCc2ccccc2)n1  Kinetic_solubility      0.032 Ug/ml
 8  CCOc1ccc(CC(=O)O)cc1-c1cc(-c2ccccc2OCC)n(CCc2ccccc2)n1  Kinetic_solubility      > 0.2 Ug/ml
 9  CCOc1ccccc1-c1cc(-c2cc(CC(=O)O)ccc2OCc2cccc(Cl)c2)nn1CCc1ccccc1  Kinetic_solubility    < 0.015 Ug/ml
10  CCCOc1ccc(CC(=O)O)cc1-c1cc(-c2cccc(OC)c2OC)n(CCc2ccccc2)n1  Kinetic_solubility      0.117 Ug/ml
11  COc1ccc(CCC(=O)O)cc1-c1cc(-c2ccc(F)cc2)n(Cc2ccccc2)n1  Kinetic_solubility      0.066 Ug/ml
12  COc1ccc(CC(=O)O)cc1-c1cc(-c2cccc(OC)c2OC)n(CCc2ccccc2)n1  Kinetic_solubility      > 0.2 Ug/ml
13  CCOc1ccccc1-c1cc(-c2cc(CC(=O)O)ccc2OC)nn1CCc1ccccc1  Kinetic_solubility      > 0.2 Ug/ml
14  CCOc1ccccc1-c1cc(-c2cc(CC(=O)O)ccc2OC)nn1Cc1ccccc1  Kinetic_solubility      0.138 Ug/ml
15  CCOc1ccccc1-c1cc(-c2cc(C(=O)O)ccc2OC)nn1CCc1ccccc1  Kinetic_solubility      > 0.2 Ug/ml
16  O=C(O)c1ccc(-c2cc(-c3ccc(F)cc3)n(CCc3ccccc3)n2)cc1  Kinetic_solubility      0.096 Ug/ml
17  CCCCOc1ccc(CC(=O)O)cc1-c1cc(-c2cccc(OC)c2OC)n(Cc2ccccc2)n1  Kinetic_solubility      > 0.2 Ug/ml
18  COc1ccc(C(=O)O)cc1-c1cc(-c2cccc(OC)c2OC)n(Cc2ccccc2)n1  Kinetic_solubility      > 0.2 Ug/ml
19  CCOc1ccc(CCC(=O)O)cc1-c1cc(-c2ccc(F)cc2)n(Cc2ccccc2)n1  Kinetic_solubility    < 0.015 Ug/ml
